Values compiled from the supplement of paper PMC10266784.

B1: library; numbered along this chain (parent)
chain: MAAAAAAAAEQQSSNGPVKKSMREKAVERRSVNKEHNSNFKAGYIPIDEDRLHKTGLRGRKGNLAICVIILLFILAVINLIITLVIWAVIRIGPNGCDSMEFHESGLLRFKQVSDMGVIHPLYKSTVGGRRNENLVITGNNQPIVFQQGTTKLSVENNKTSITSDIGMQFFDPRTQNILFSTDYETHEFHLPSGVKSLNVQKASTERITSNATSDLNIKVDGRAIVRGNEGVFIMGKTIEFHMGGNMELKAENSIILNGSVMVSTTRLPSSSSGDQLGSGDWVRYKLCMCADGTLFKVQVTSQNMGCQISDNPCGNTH

variants of: B1; experiment: SGCB cell-surface expression functional score (HA stain, bin4 vs bin1, normalised to synonymous) (log10 ratio); higher = more cell-surface SGCB (functional)
The label depends only on SGCB cell-surface expression functional score (log10): yes if it is at least 0.03, no if it is smaller.

1) A2I: yes
2) E28L: yes
3) T265E: yes
4) R91P: no
5) I82H: yes
6) T126S: no
7) K124I: yes
8) S210R: no
9) I178N: no
10) N229F: yes
11) G259V: yes
12) S210C: no
13) D292A: no
14) I82R: no
15) S302E: no
16) T55V: no
17) K20F: yes
18) H103K: no
19) T186H: yes
20) I239M: yes
21) V155T: no
